test system: SF-539; assay: NCI tumour cell line growth inhibition, 48 h
Active and inactive are the calls of the source. Cut-off read from the data, not from the text of the source: active = GI50 up to about 1.1 µM and inactive = higher.
Outcome codes: Yes for active, No for inactive

{"molecule": "Cc1c(N)nc(C(CC(N)=O)NCC(N)C(N)=O)nc1C(=O)NC(C(=O)NC(C)C(O)C(C)C(=O)NC(C(=O)NCCc1nc(-c2nc(C(=O)NCCCNC(C)c3ccccc3)cs2)cs1)C(C)O)C(OC1OC(CO)C(O)C(O)C1OC1OC(CO)C(O)C(OC(N)=O)C1O)c1c[nH]cn1 (stereo not drawn)", "discrete-label": "Yes"}
{"molecule": "Cn1c(-c2ccccc2)cc(-c2ccc3c(c2)OCO3)c1-c1ccsc1", "discrete-label": "No"}
{"molecule": "CNC(=S)N/N=C1\\CC(c2ccccc2)Oc2ccccc21 (stereo not drawn)", "discrete-label": "No"}
{"molecule": "CC(=O)C(CN(CC(C)C)CC(C)C)C(c1ccccc1)c1c(O)c2ccccc2oc1=O (stereo not drawn)", "discrete-label": "No"}
{"molecule": "Cc1oc2c(C)c(O)c3c(c2c1C1(C)OCCO1)C(=O)C=C(Cl)C3=O", "discrete-label": "No"}
{"molecule": "Cc1c(N)nc([C@H](CC(N)=O)NC[C@H](N)C(N)=O)nc1C(=O)N[C@H](C(=O)N[C@H](C)[C@@H](O)[C@H](C)C(=O)N[C@H](C(=O)NCCc1nc(-c2nc(C(=O)NCCC[S+](C)C)cs2)cs1)[C@@H](C)O)C(OC1OC(CO)C(O)C(O)C1OC1OC(CO)C(O)C(OC(N)=O)C1O)c1c[nH]cn1 (stereo partly drawn)", "discrete-label": "Yes"}
{"molecule": "ClCc1c(-c2ccccc2)nn(-c2ccccc2)c1CCl", "discrete-label": "No"}
{"molecule": "COP(=O)(OC)[C@@](O)(c1ccccc1)[C@@H](O)[C@@H](O)c1ccccc1", "discrete-label": "No"}
{"molecule": "COC(=O)c1cc(CC2Cc3cc4c(cc3C2)CCC4)cc2c1CCC2", "discrete-label": "No"}
{"molecule": "COc1cc(S(=O)(=O)Nc2ccc(-c3csc(N4C(=O)C(Cl)C4c4cccs4)n3)cc2)ccc1Cl (stereo not drawn)", "discrete-label": "No"}
{"molecule": "CC(C)(C)OC(=O)N(CCCCNC(=O)OCc1ccccc1)CCCNC(=O)OCc1ccccc1", "discrete-label": "No"}
{"molecule": "COc1cc(C2C3=C(COC3=O)OC(C)(C)Oc3cc4c(cc32)OCO4)cc(OC)c1O (stereo not drawn)", "discrete-label": "Yes"}
{"molecule": "CCCNC1=NC(C)=CSC(Nc2ccccc2)=C1C#N", "discrete-label": "No"}
